The compounds listed here are annotated with their TGI.
Tested on: LOX IMVI melanoma
Assay: NCI tumour cell line growth inhibition, 48 h

See these solved cases before continuing.
# smilesRepresentation, testedOn, measuredValue
data = [
    ("O=C([O-])c1cc(I)cc(I)c1[OH2+].O=C([O-])c1cc(I)cc(I)c1[OH2+].[Mn+2]", "LOX IMVI melanoma", "> 100 µM"),
    ("COc1c(C)c(O)c2c(=O)cc(-c3ccccc3)oc2c1C", "LOX IMVI melanoma", "> 100 µM"),
]

We next turn to a different compound, shown below.
[in] TGI lookup needed for O=C(Nc1ccc(OCc2nnc(-c3ccc(Cl)cc3)o2)c(F)c1)c1ccc(Cl)c(C(F)(F)F)c1 , thanks.
[out] > 50 µM

----------
Test system: HCT-15 colon
Assay: NCI tumour cell line growth inhibition, 48 h
Recorded TGI by entry

Answered cases to consult:
# molecule, TGI
measured = [
    ("CCOCCOC(=O)C1CCC(=O)N1CN(C(C)=O)c1cc(OC)ccc1OC (configuration not stated)", "> 100 µM"),
    ("COc1ccc(CC(C)=C(c2ccc(OCCN3CCCCCC3)cc2)c2ccc(OCCN3CCCCCC3)cc2)cc1", "0.382 µM"),
    ("CC(=O)OC1C2CCC1C1C2N=NN1c1ccc([N+](=O)[O-])cc1 (configuration not stated)", "> 100 µM"),
    ("COC1/C=C\\C=C(/C)C(=O)NC2=CC(=O)C(N)=C(CC(C)CC(OC)C(O)C(C)C=C(C)C1OC(N)=O)C2=O (configuration not stated)", "31.5 µM"),
    ("Cc1nn(C(=O)c2ccccc2O)c2c1C(c1ccc3ccccc3c1O)SC(N)=N2 (configuration not stated)", "> 10 µM"),
    ("O=C1Nc2cc(Cl)ccc2C(=O)N2CCC[C@@H]12", "> 100 µM"),
]

For the next question, use this molecule.
[in] Record request: TGI value, item COc1ccc(/C=C2\Oc3cc(OC(C)=O)ccc3C2=O)cc1
[out] > 100 µM

----------
# TGI annotations
System: T-47D breast
Assay: NCI tumour cell line growth inhibition, 48 h

# molecule, TGI
rows = [
    ("O=C(COc1nc2ccccc2nc1-c1ccccc1)Nc1ccc(Cl)cc1", "> 100 µM"),
    ("C=CCN1CCN([C@H](c2ccc(C(=O)N(CC)CC)cc2)c2cccc(OC)c2)CC1", "> 25 µM"),
    ("O=C(/C=C/NC(=O)OCc1ccccc1)OCc1ccccc1", "> 100 µM"),
    ("C/C(=C\\COc1cc(O)c2c(c1)C(=O)c1cc(C)cc(O)c1C2=O)CCC1OC1(C)C (configuration not stated)", "> 100 µM"),
    ("NC(=S)N/N=C1\\CCCCc2ccccc21", "> 10 µM"),
]

[in] Query: TGI; subject: CCn1c(=O)c(Oc2ccc(F)cc2F)cc2cnc(NC3CCOCC3)nc21
[out] > 25 µM

[in] Need TGI of CN(C)C1C(=O)C(C(=O)NCN2CCCC2)=C(O)C2(O)C(=O)C3=C(O)c4c(O)cccc4C(C)(O)C3CC12 (configuration not stated) , thanks.
[out] > 100 µM

[in] What TGI value was documented for this molecule, CCOC(=O)C(/C=N\C(=S)Nc1c(CC)cccc1C(C)(C)C)=C(/O)c1ccccc1 ?
[out] > 100 µM

----------
Below: a set of entries, each annotated with reported TGI.
Test system: NCI-H226 lung
Assay: NCI tumour cell line growth inhibition, 48 h

Use these answered entries as a reference point.
# molecule, TGI
records = [
    ("O=C(CSc1nnc(SCC(=O)NN=C2CCCCC2)s1)NN=C1CCCCC1", "> 100 µM"),
    ("CCCCCCCCCCCCCC(=O)OC1C(O)C(CO)OC(OC)C1NC(=O)N(CCCl)N=O (stereo not drawn)", "> 100 µM"),
    ("COc1cccc2c1N[S@](=O)S2", "> 100 µM"),
    ("C=CCN1CCN([C@H](c2ccc(C(=O)N(CC)CC)cc2)c2cccc(OC)c2)CC1", "> 25 µM"),
    ("C1CSC(Sc2nc(SC3=NCCS3)nc(SC3=NCCS3)n2)=N1", "> 100 µM"),
]

[in] GET /values?readout=TGI&system=NCI-H226 lung&item= c1coc(C2=Nc3cccc4cccc(c34)N2)c1
[out] > 100 µM

[in] Any idea what TGI came out for CNc1ccccc1-c1nc2ccccc2c(=O)o1 on NCI-H226 lung?
[out] > 100 µM

[in] Form field: TGI recorded for COC1OC(COC(C)=O)C(OC(C)=O)C(OC(C)=O)C1NC(=O)N(CCCl)N=O (stereo not drawn) with NCI-H226 lung (enter value)
[out] > 100 µM

[in] Short answer please: TGI, NCI-H226 lung, entry COCOc1cc(OCOC)cc(C(=O)Oc2ccccc2)c1
[out] > 100 µM

----------
Listed next: entries and their corresponding TGI.
Tested on: SW-620 colon
Test: NCI tumour cell line growth inhibition, 48 h

# compound, testedOn, measurementLabel, measuredValue
rows = [
    ("COc1ccc(O)c(/C=N/NC(=S)N2CCCCC2)c1", "SW-620 colon", "TGI", "> 100 µM"),
    ("CCn1cc(C(=O)O)c(=O)c2cc(F)c(N3CCN(CN4C(=O)/C(=N\\c5ncc(Cc6cc(OC)c(OC)c(OC)c6)c(N)n5)c5cc(Cl)ccc54)CC3)cc21", "SW-620 colon", "TGI", "> 100 µM"),
    ("O=C1C(Cl)C(c2cc3cc(Br)ccc3nc2Cl)N1c1ccc(F)c(Cl)c1 (centres undefined)", "SW-620 colon", "TGI", "33 µM"),
    ("C1CSC(Sc2nc(SC3=NCCS3)nc(SC3=NCCS3)n2)=N1", "SW-620 colon", "TGI", "> 100 µM"),
    ("COc1cc(/C=N/n2c(-c3ccccc3)n[nH]c2=O)cc(OC)c1OC", "SW-620 colon", "TGI", "> 100 µM"),
]

[in] Item CCNC(=O)N(CC)CN(CC)C(=O)NCC has what recorded TGI?
[out] > 100 µM

[in] // query TGI value for entry NC(=S)N/N=C1\CCCCc2ccccc21
[out] > 10 µM

[in] # lookup: TGI of Nc1nc(N)c(N=Nc2ccccc2)c(-c2ccccc2)n1
[out] 27.2 µM

[in] Field request: TGI | item: O=c1c(-c2ccccc2)c2n(c3ccccc13)CCN2
[out] > 100 µM

----------
System: T-47D breast
Test: NCI tumour cell line growth inhibition, 48 h
measurementLabel: TGI

Please review the entries below; each comes with its answer.
# compound, testedOn, TGI
data = [
    ("O=C(CSc1nnc(SCC(=O)NN=C2CCCCC2)s1)NN=C1CCCCC1", "T-47D breast", "> 100 µM"),
    ("O=C1Nc2cc(Cl)ccc2C(=O)N2CCC[C@@H]12", "T-47D breast", "> 100 µM"),
    ("Clc1ccc2c(c1)C(Br)c1cc(Cl)cc(Cl)c1-2 (centres undefined)", "T-47D breast", "> 100 µM"),
    ("COc1ccc(NC2=NCCO2)c2c1CCCC2", "T-47D breast", "> 100 µM"),
    ("CC(=O)NCCC1CNc2ccccc21 (centres undefined)", "T-47D breast", "> 100 µM"),
]

[in] Could you tell me which TGI is on file for CC1(CO)COC(C)(C)OC1 ?
[out] > 100 µM

[in] I would be grateful if you could share the reported TGI for COc1cc([C@@H]2c3cc4c(cc3[C@@H](Nc3ccc(N=Cc5ccc(C(=O)O[C@@H](C(=O)O[C@H]6C[C@@]7(O)[C@@H](OC(=O)c8ccccc8)[C@@H]8[C@]9(OC(C)=O)CO[C@@H]9C[C@H](O)[C@@]8(C)C(=O)[C@H](OC(C)=O)C(=C6C)C7(C)C)[C@@H](NC(=O)c6ccccc6)c6ccccc6)cc5)cc3)[C@H]3COC(=O)[C@H]23)OCO4)cc(OC)c1O .
[out] > 50 µM

[in] Fill in: TGI of CCN(CC)Cc1cc(Nc2c3ccc(Cl)cc3nc3ccc(OC)cc23)ccc1O is ___
[out] 7.25 µM

[in] Param item = Cc1[nH]c(=O)[nH]c(=S)c1C(=O)NC1C2CCCCC2NC2CCCCC21 (centres undefined) ; retrieve measured TGI.
[out] 43.8 µM

[in] Recorded TGI for Nc1nonc1C(=Nc1ccc(F)c(Cl)c1)NO , please?
[out] > 100 µM

----------
Test system: NCI-H226 lung
Assay: NCI tumour cell line growth inhibition, 48 h
Entries and their TGI

Please review the following examples before continuing.
# smilesRepresentation, TGI
data = [
    ("O=C(/C=C/NC(=O)OCc1ccccc1)OCc1ccccc1", "> 100 µM"),
    ("CC(C)OC(=O)C1=C2c3ncccc3C(=O)N2[C@@H](Cl)[C@H](Cl)[C@H]1Cl", "> 100 µM"),
    ("CC(=O)O[C@H]1C(=O)[C@@]2(C)[C@H]([C@H](OC(=O)c3ccccc3)[C@]3(O)C[C@H](OC(=O)[C@H](O)[C@@H](NC(=O)c4ccccc4)c4ccccc4C)C(C)=C1C3(C)C)[C@]1(OC(C)=O)CO[C@@H]1C[C@@H]2O", "> 25 µM"),
]

Alright, here's another molecule for you.
[in] Request the reported TGI associated with O=C(Cc1nc2ccccc2o1)C(=O)Nc1ccccc1C(F)(F)F
[out] > 100 µM
